- Target or test system: α-glucosidase (EC3.2.1.20) (Saccharomyces cerevisiae, UniProt P07265)
- Construct: purchased Sigma Aldrich
- Sequence (P07265 whole entry): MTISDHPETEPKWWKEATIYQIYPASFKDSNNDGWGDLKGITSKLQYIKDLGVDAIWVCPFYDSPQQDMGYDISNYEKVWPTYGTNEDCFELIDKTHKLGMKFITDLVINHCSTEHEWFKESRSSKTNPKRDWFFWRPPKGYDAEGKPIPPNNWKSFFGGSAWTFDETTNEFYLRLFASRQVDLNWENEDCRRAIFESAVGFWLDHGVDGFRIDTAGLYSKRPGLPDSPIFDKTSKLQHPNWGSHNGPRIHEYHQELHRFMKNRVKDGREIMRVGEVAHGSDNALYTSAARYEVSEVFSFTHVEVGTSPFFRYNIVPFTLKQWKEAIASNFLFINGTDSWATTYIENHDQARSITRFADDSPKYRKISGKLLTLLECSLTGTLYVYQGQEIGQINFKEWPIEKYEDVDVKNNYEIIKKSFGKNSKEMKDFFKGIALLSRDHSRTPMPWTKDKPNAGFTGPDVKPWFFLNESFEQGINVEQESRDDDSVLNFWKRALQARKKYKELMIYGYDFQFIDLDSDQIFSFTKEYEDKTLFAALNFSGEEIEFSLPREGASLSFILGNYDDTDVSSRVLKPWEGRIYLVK
- Experiment summary: biochemical
- Condition info: IC50 ± SEM, α-glucosidase; mean ± SEM of three independent readings

{"Sample smiles": "CC[C@H](CC[C@@H](C)[C@H]1CC[C@H]2[C@@H]3CC=C4C[C@@H](O)CC[C@]4(C)[C@H]3CC[C@]12C)C(C)C", "Scale unit": "µM", "IC50": 143}

###

- Target or test system: α-glucosidase (EC3.2.1.20) (Saccharomyces cerevisiae, UniProt P07265)
- Construct: purchased Sigma Aldrich
- Experiment summary: biochemical
- Condition info: α-glucosidase; mean ± SEM of three independent readings; read-out: IC50 ± SEM
pIC50: −log10 of the molar value.

{"Compound": "CCC(CCC(C)C1CCC2C3CC=C4CC(OC5OC(CO)C(O)C(O)C5O)CCC4(C)C3CCC12C)C(C)C [Compound 2, β-Sitosterol3-O-β-D-glucopyranoside]", "pIC50": 3.50}
